Cited source for all entries: patent US20160158307A1

Test system: MCF-7
Assay: In vitro cell assay (Cell Titer Glo), MCF-7
Format: cell-based, Human
Conditions: Homo sapiens, MCF7; Table 2
Numbered stars: 1 amine (or outer) side, 2 acyl side, 3 side chain; on linkers, the order of the positions; unused ones are H or OH. Square brackets hold non-standard residues; d marks the D form. Peptide text beside a SMILES is read from it. * marks the point of attachment. Butanoyl(3R-OMe,4S-NMe,4-Cy) = CO[C@H](CC(=O)[*:2])[C@H](C1CCCCC1)N(C)[*:1]; Dolaproine = CO[C@@H]([C@@H]1CCCN1)[C@@H](C)C(=O)O; X2 = CO[C@H](CC(=O)[*:2])[C@H](C1CCCC1)N(C)[*:1]; Aib = CC(C)(N)C(=O)O; OtBu = CC(C)(C)O*
IC50 values for the compounds below.

| compound | IC50 |
| --- | --- |
| CO[C@H]([C@@H](C)C(=O)N[C@H](C)[C@@H](O)c1ccccc1)[C@@H]1CCCN1C(=O)C[C@@H](OC)[C@H](C1CCCCC1)N(C)C(=O)[C@@H](NC(=O)C(C)(C)N)C(C)C | 3.19 nM |
| CO[C@H]([C@@H](C)C(=O)N[C@@H](Cc1ccccc1)c1nccs1)[C@@H]1CCCN1C(=O)C[C@@H](OC)[C@H](C1CCCC1)N(C)C(=O)[C@@H](NC(=O)C(C)(C)N)C(C)C | 2.9 nM |
| CO[C@H]([C@@H](C)C(=O)N[C@@H](Cc1ccccc1)c1nccs1)[C@@H]1CCCN1C(=O)C[C@@H](OC)[C@H](C1CCCCC1)N(C)C(=O)[C@@H](NC(=O)C(C)(C)N)C(C)C | 1.99 nM |
| CO[C@H]([C@@H](C)C(=O)N[C@H](C)[C@@H](O)c1ccccc1)[C@@H]1CCCN1C(=O)C[C@@H](OC)[C@H](C1CCCC1)N(C)C(=O)[C@@H](NC(=O)C(C)(C)N)C(C)C | 4.75 nM |
| CO[C@H]([C@@H](C)C(=O)N[C@@H](Cc1ccccc1)C(=O)OC(C)(C)C)[C@@H]1CCCN1C(=O)C[C@@H](OC)[C@H](C1CCCCC1)N(C)C(=O)[C@@H](NC(=O)C(C)(C)N)C(C)C [Compound 22] (H-[Aib]V[Butanoyl(3R-OMe,4S-NMe,4-Cy)][Dolaproine]F-OtBu) | 0.529 nM |
| CO[C@H]([C@@H](C)C(=O)N[C@@H](Cc1ccccc1)C(=O)OC(C)(C)C)[C@@H]1CCCN1C(=O)C[C@@H](OC)[C@H](C1CCCC1)N(C)C(=O)[C@@H](NC(=O)C(C)(C)N)C(C)C [Compound 21] (H-[Aib]V[X2][Dolaproine]F-OtBu) | 1.3 nM |

* * *

Tested on: Hela
Test: In vitro cell assay (Cell Titer Glo), Hela
Type: cell-based, Human
Conditions: Table 2; 6 days exposure
Experimental: In vitro cell assay is performed in a 96 well micro titer plate. Human tumor cell lines Hela, A549, MCF-7, HCC-1954 and SK-BR-3 are obtained from ATCC (American Type Culture Collection). The cells were harvested respectively during the logarithmic growth period and counted with hemocytometer. […] To each well was added 10 μL, of DMSO diluted compound (10×). For the sentinel base T0 plate, to each well was added 100 μL Cell Titer Gloand the luminescence signals with Envision reading were recorded. […]
pIC50: −log10 of the molar value.

| compound | tested-target | pIC50 |
| --- | --- | --- |
| N.N.[Cl][Pt][Cl] [Cisplatin, reference compound] | Hela | 6.74 |
